Tested on: SF-268
assay_explanation: NCI tumour cell line growth inhibition, 48 h
The source made the active and inactive calls. Rule as the data show it: active = GI50 up to about 1.1 µM and inactive = higher.
Listed molecules paired with reported GI50

molecule | target_system | GI50
CCOC(=O)C1=C(C(=O)OCC)C2(c3ccccc3)N(O1)c1ccccc1C2(C)C (stereo not given) | SF-268 | 31.2 µM (inactive)
O=C(O)CCC(=O)C(=O)O [ALPHA-KETOGLUTARIC ACID] | SF-268 | > 100 µM (inactive)
C=CCN1/C(=C(\C#N)c2nc3ccccc3[nH]2)Sc2c1nc[nH]c2=O | SF-268 | > 100 µM (inactive)
COc1ccc(/C=C/c2cc(OC)cc(OC)c2)cc1 [TRISMETHOXYRESVERATROL] | SF-268 | 7.93 µM (inactive)

# input Would you mind telling me what GI50 value was observed for COc1ccc(NC(=O)CC(=O)n2nc(C)c(/N=N/c3cccc(C)c3)c2C)cc1 ?
# output > 100 µM (inactive)

# input Also, C=CC[P@]1(=O)O[C@H](c2ccccc2)C(C)N1C(C)C (stereo not given in full) please.
# output > 100 µM (inactive)

# input And for NS(=O)(=O)c1nnc(NS(=O)(=O)c2ccccc2C(=O)O)s1 ?
# output > 100 µM (inactive)

# input Now the molecule COc1cccc2c1C(=O)c1c(O)c3c(c(O)c1C2=O)C[C@H](O)C[C@@H]3OC1CC(N)C(O)C(C)O1 (stereo not given in full)
# output 1.57 µM (inactive)

# input Another molecule: CCN(CC)CC[n+]1ccc2c(C)c3[nH]c4ccccc4c3c(C)c2c1
# output 0.222 µM (active)

# input # iterate: CC1(c2ccccc2)N=c2[nH]cnc2=C(C(N)=O)N1 (stereo not given)
# output > 100 µM (inactive)
